target: T1, KDR (1-3) (UniProt P35968 20-327, limits assumed)
T1 construct: domain: KDR (1-3); Soluble KDR (1-3) at 1 ug/ml, captured on the plate by anti-KDR monoclonal antibody MAKD5; also called KDR (1-3) monomer
T1 sequence (P35968 20-327 limits assumed): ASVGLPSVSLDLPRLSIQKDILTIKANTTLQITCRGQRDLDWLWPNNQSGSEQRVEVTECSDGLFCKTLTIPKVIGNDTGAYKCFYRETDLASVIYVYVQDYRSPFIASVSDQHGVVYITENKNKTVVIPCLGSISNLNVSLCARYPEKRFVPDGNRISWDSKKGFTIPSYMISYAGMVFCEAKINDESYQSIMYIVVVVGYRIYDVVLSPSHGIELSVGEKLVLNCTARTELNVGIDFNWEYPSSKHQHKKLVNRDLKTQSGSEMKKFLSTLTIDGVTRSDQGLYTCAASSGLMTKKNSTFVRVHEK
procedure summary: competition ELISA, biotinylated native VEGF (8-109) as tracer, KDR (1-3) captured by mAb MAKD5
Would you kindly list pIC50 for each of these binders?
Quick note: pIC50 values are minus log10 of concentrations in mol/L.

In: Recorded pIC50 of LK-VRB-1s* (ligand) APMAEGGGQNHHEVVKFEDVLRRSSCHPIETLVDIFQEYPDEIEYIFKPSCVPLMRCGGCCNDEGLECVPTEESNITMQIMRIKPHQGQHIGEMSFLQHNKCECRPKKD , please.
Out: 9.00

In: Recorded pIC50 of LK-VRB-4s (ligand) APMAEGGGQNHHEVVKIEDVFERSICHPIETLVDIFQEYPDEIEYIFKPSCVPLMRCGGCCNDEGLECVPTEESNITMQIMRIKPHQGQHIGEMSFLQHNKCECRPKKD , please.
Out: 9.00

In: Recorded pIC50 of LK-VRB-18s (ligand) APMAEGGGQNHHEVVKFEDVLQRSSCHPIETLVDIFQEYPDEIEYIFKPSCVPLMRCGGCCNSEMRECVPTEESNITMQIMRIKPHQGQHIGEMSFLQHNKCECRPKKD , please.
Out: 6.89

In: Recorded pIC50 of LK-VRB-13s (ligand) APMAEGGGQNHHEVVKFEDVYQRSSCHPIETLVDIFQEYPDEIEYIFKPSCVPLMRCGGCCNSEMRECVPTEESNITMQIMRIKPHQGQHIGEMSFLQHNKCECRPKKD , please.
Out: 7.85

In: Recorded pIC50 of LK-VRB-21s (ligand) APMAEGGGQNHHEVVKFEDVLRRSSCHPIETLVDIFQEYPDEIEYIFKPSCVPLMRCGGCCNSEGLECVPTEESNITMQIMRIKPHQGQHIGEMSFLQHNKCECRPKKD , please.
Out: 8.52

In: Recorded pIC50 of LK-VRB-9s (ligand) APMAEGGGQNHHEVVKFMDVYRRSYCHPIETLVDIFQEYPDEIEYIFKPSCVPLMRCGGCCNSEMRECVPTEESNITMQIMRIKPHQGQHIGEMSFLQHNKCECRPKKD , please.
Out: 9.30

In: Recorded pIC50 of LK-VRB-25s (ligand) APMAEGGGQNHHEVVKFEDVLRRSSCHPIETLVDIFQEYPDEIEYIFKPSCVPLMRCGGCCNSEGRECVPTEESNITMQIMRIKPHQGQHIGEMSFLQHNKCECRPKKD , please.
Out: 8.40

In: Recorded pIC50 of LK-VRB-20s (ligand) APMAEGGGQNHHEVVKFMDVLRRSSCHPIETLVDIFQEYPDEIEYIFKPSCVPLMRCGGCCNSEMRECVPTEESNITMQIMRIKPHQGQHIGEMSFLQHNKCECRPKKD , please.
Out: 8.70

In: Recorded pIC50 of LK-VRB-22s (ligand) APMAEGGGQNHHEVVKFEDVLRRSSCHPIETLVDIFQEYPDEIEYIFKPSCVPLMRCGGCCNDEMLECVPTEESNITMQIMRIKPHQGQHIGEMSFLQHNKCECRPKKD , please.
Out: 8.40

In: Recorded pIC50 of LK-VRB-16s (ligand) APMAEGGGQNHHEVVKFMDVYRRSSCHPIETLVDIFQEYPDEIEYIFKPSCVPLMRCGGCCNSEMRECVPTEESNITMQIMRIKPHQGQHIGEMSFLQHNKCECRPKKD , please.
Out: 9.22

In: Recorded pIC50 of LK-VRB-10s (ligand) APMAEGGGQNHHEVVKFMDVYQRSSCHPIETLVDIFQEYPDEIEYIFKPSCVPLMRCGGCCNSEMRECVPTEESNITMQIMRIKPHQGQHIGEMSFLQHNKCECRPKKD , please.
Out: 9.30

In: Recorded pIC50 of LK-VRB-24s (ligand) APMAEGGGQNHHEVVKFEDVLRRSSCHPIETLVDIFQEYPDEIEYIFKPSCVPLMRCGGCCNSEMLECVPTEESNITMQIMRIKPHQGQHIGEMSFLQHNKCECRPKKD , please.
Out: 8.00

In: Recorded pIC50 of LK-VRB-11s (ligand) APMAEGGGQNHHEVVKFEDVLQRSYCHPIETLVDIFQEYPDEIEYIFKPSCVPLMRCGGCCNSEMRECVPTEESNITMQIMRIKPHQGQHIGEMSFLQHNKCECRPKKD , please.
Out: 8.70

In: Recorded pIC50 of LK-VRB-14s (ligand) APMAEGGGQNHHEVVKFMDVLRRSYCHPIETLVDIFQEYPDEIEYIFKPSCVPLMRCGGCCNSEMRECVPTEESNITMQIMRIKPHQGQHIGEMSFLQHNKCECRPKKD , please.
Out: 9.30

In: Recorded pIC50 of LK-VRB-12s (ligand) APMAEGGGQNHHEVVKFEDVYRRSYCHPIETLVDIFQEYPDEIEYIFKPSCVPLMRCGGCCNSEMRECVPTEESNITMQIMRIKPHQGQHIGEMSFLQHNKCECRPKKD , please.
Out: 9.40

In: Recorded pIC50 of LK-VRB-23s (ligand) APMAEGGGQNHHEVVKFEDVLRRSSCHPIETLVDIFQEYPDEIEYIFKPSCVPLMRCGGCCNDEGRECVPTEESNITMQIMRIKPHQGQHIGEMSFLQHNKCECRPKKD , please.
Out: 7.96
